System: H4
Experiment: Luminescence Cell-Based Dose Response HTS to Identify Activators of 5'UTR Stem-Loop Driven Prion Protein mRNA Translation in H4 Neuroglioblastoma Cells. [Related pubchem assays: 1829 (Project Summary), 1814 (Primary HTS)]
Type: functional
Settings: Homo sapiens
Active and inactive are the calls of the source. Cut-off read from the data, not from the text of the source: actives have a measured EC50 and inactives only a lower limit.
# EC50 values compiled below
ASSAY_READOUT: EC50

[
  {
    "MOLECULE": "COc1ccc(NC(=O)c2cnc(SC)nc2)cc1",
    "ASSAY_READOUT": "EC50",
    "ASSAY_VALUE": "16 µM (active)"
  },
  {
    "MOLECULE": "CC(=O)N(C)c1ccc(NC(S)=Nc2cccc3ccccc23)cc1",
    "ASSAY_READOUT": "EC50",
    "ASSAY_VALUE": "30.7 µM (active)"
  },
  {
    "MOLECULE": "C/C(Cn1nnc([N+](=O)[O-])n1)=N\\NC(=O)c1ccccc1",
    "ASSAY_READOUT": "EC50",
    "ASSAY_VALUE": "> 120 µM (not active)"
  },
  {
    "MOLECULE": "Cc1nc(-c2ccc(Cl)cc2)sc1C1(C)CC(c2ccccc2)=NO1 (configuration not stated)",
    "ASSAY_READOUT": "EC50",
    "ASSAY_VALUE": "31.3 µM (active)"
  },
  {
    "MOLECULE": "Cc1ccc(-c2cc3nc(-c4ccccc4)cc(N)n3n2)cc1",
    "ASSAY_READOUT": "EC50",
    "ASSAY_VALUE": "> 120 µM (not active)"
  },
  {
    "MOLECULE": "CCOC(=O)c1c(C)oc2c1c1c(c3ccccc32)OCN(CCCC(=O)O)C1",
    "ASSAY_READOUT": "EC50",
    "ASSAY_VALUE": "11 µM (active)"
  },
  {
    "MOLECULE": "N#Cc1nc(-c2cccc3ccccc23)oc1NCCN1CCCCC1",
    "ASSAY_READOUT": "EC50",
    "ASSAY_VALUE": "> 120 µM (not active)"
  }
]
